Reported IC50, Mu-type opioid receptor (Cavia porcellus, UniProt P97266).
QUANTITY KIND: IC50

• CC[C@H](C)[C@H](NC(=O)[C@H](CCCN=C(N)N)NC(=O)[C@H](CCCN=C(N)N)NC(=O)[C@H](CC(C)C)NC(=O)[C@H](Cc1ccccc1)NC(=O)[C@@H](NC(=O)CNC(=O)[C@@H](N)Cc1ccc(O)cc1)[C@@H](C)c1ccccc1)C(=O)N[C@@H](CCCN=C(N)N)C(=O)N1CCC[C@H]1C(=O)N[C@@H](CCCCN)C(N)=O = 1.35 µM
• CC[C@H](C)[C@H](NC(=O)[C@H](CCCN=C(N)N)NC(=O)[C@H](CCCN=C(N)N)NC(=O)[C@H](CC(C)C)NC(=O)[C@H](Cc1ccccc1)NC(=O)[C@@H](Cc1ccccc1)NC(=O)CNC(=O)[C@@H](N)Cc1ccc(O)cc1)C(=O)N[C@@H](CCCN=C(N)N)C(=O)N1CCC[C@H]1C(=O)N[C@@H](CCCCN)C(N)=O = 0.086 µM
• CC[C@H](C)[C@H](NC(=O)[C@H](CCCNC(=N)N)NC(=O)[C@H](CCCNC(=N)N)NC(=O)[C@H](CC(C)C)NC(=O)[C@H](Cc1ccccc1)NC(=O)[C@@H](CCC(=O)O)NC(=O)CNC(=O)[C@@H](N)Cc1ccc(O)cc1)C(=O)N[C@@H](CCCNC(=N)N)C(=O)N1CCC[C@H]1C(=O)N[C@@H](CCCCN)C(N)=O = 2.5 µM
• CC[C@H](C)[C@H](NC(=O)CNC(=O)[C@@H](N)Cc1ccc(O)cc1)C(=O)N[C@@H](Cc1ccccc1)C(=O)N[C@@H](CC(C)C)C(=O)N[C@@H](CCCN=C(N)N)C(=O)N[C@@H](CCCN=C(N)N)C(=O)N[C@H](C(=O)N[C@@H](CCCN=C(N)N)C(=O)N1CCC[C@H]1C(=O)N[C@@H](CCCCN)C(N)=O)[C@@H](C)CC = 0.86 µM
